System: SNB-19
test.protocol: NCI tumour cell line growth inhibition, 48 h
Activity calls are given as the source filed them. No stated cut-off is given here; in the data, active = GI50 up to about 1.1 µM and inactive = higher.

[
  {
    "compound": "CC(=O)NC(CCCNC(=O)N(CCCl)N=O)C(=O)NCc1ccccc1 (configuration not stated)",
    "GI50": "22.6 µM (inactive)"
  },
  {
    "compound": "CC(=O)NC(NCCN)(c1ccccc1)c1ccccc1",
    "GI50": "> 100 µM (inactive)"
  },
  {
    "compound": "COc1cc2oc(-c3ccc(O)cc3)cc(=O)c2c(OC)c1OC",
    "GI50": "> 100 µM (inactive)"
  },
  {
    "compound": "COc1cc2c(cc1OC)C1(c3ccccc3)ON=C(c3ccccc3)N1CS2 (configuration not stated)",
    "GI50": "> 100 µM (inactive)"
  },
  {
    "compound": "O=C1CCC[C@]2(CCC[C@@H](O)C2)N1",
    "GI50": "> 100 µM (inactive)"
  },
  {
    "compound": "Cc1ccc(Cc2c(=O)[nH]nc3ccccc23)cc1",
    "GI50": "> 100 µM (inactive)"
  },
  {
    "compound": "COc1ccc(/C=N/N=C(\\N)NO)c(OC)c1C",
    "GI50": "65.2 µM (inactive)"
  },
  {
    "compound": "O=C1O[C@H]2[C@H](OC(=O)c3cc(O)c(O)c(O)c3)[C@@H](OC(=O)c3cc(O)c(O)c4c3[C@@H]3C1=CC(=O)C(O)(O)C3(O)O4)[C@H](OC(=O)c1cc(O)c(O)c(O)c1)O[C@@H]2COC(=O)c1cc(O)c(O)c(O)c1 (some centres not stated) [TERCHEBIN]",
    "GI50": "> 100 µM (inactive)"
  },
  {
    "compound": "S=C(N/N=C/c1ccccc1)NC1CC(c2ccccc2)Oc2ccccc21 (configuration not stated)",
    "GI50": "36.5 µM (inactive)"
  },
  {
    "compound": "O=Cc1ccc(OCc2cccc(COc3ccc(/C=N\\Nc4ccc([N+](=O)[O-])cc4[N+](=O)[O-])cc3)n2)cc1",
    "GI50": "> 100 µM (inactive)"
  },
  {
    "compound": "COc1ccc2c3c([nH]c2c1)[C@H](C=C(C)C)N1C(=O)[C@@H]2CCCN2C(=O)[C@@H]1C3 [FUMITREMORGIN]",
    "GI50": "> 100 µM (inactive)"
  },
  {
    "compound": "COc1cc(C(O)(CC#N)c2cc3c(cc2Br)OCO3)cc(OC)c1OC (configuration not stated)",
    "GI50": "27.1 µM (inactive)"
  },
  {
    "compound": "CN(C)CCOc1ccc([N+](=O)[O-])c2cccnc12",
    "GI50": "> 100 µM (inactive)"
  },
  {
    "compound": "COc1cc2cc3c4c(cc(OC)c(OC)c4c2cc1OC)CCN3C(=O)CCCC(=O)O",
    "GI50": "> 100 µM (inactive)"
  },
  {
    "compound": "CCOC(=O)c1nc(-c2ccccc2)oc1OCC",
    "GI50": "> 100 µM (inactive)"
  },
  {
    "compound": "CCOC(=O)c1c(CN2CCNCC2)nc2ccccc2c1-c1ccccc1",
    "GI50": "17.5 µM (inactive)"
  },
  {
    "compound": "NC(=O)N/N=C1\\C[C@H]2CCCC[C@H]2C1",
    "GI50": "84.7 µM (inactive)"
  }
]
